system: A549 (lung carcinoma); assay: CIMA assay (colorimetric indicator of metabolic activity), cell viability, A549; details: A549, 10 ug/mL; listed as 169-14-15-4; unit assumed
measuredProperty: Average cell viability
Note to self: number, then unit, no commentary.

Given the entry CC/C=C\C/C=C\C/C=C\C/C=C\C/C=C\CCCC(=O)OCC(COC1OC(CO)C(O)C(O)C1O)OC(=O)CCCCCCCCCCCCCCC (stereo not shown) , report its measured Average cell viability.
98%

---

assay: CIMA assay, cell viability, CCD1079SK; settings: human, CCD1079SK fibroblasts (noncancerous, proliferating), Average cell viability, CCD; 50 ug/mL
measuredProperty: viability at 72 h, 50 ug/mL (%)
Numbers only, in %.

Batch lookup, viability at 72 h, 50 ug/mL per entry.
1. CCCCCCCCCCCCCCCC(=O)OCC(COC1OC(CO)C(O)C(O)C1O)OC(=O)CCCCCCCCCCCCC (stereo not drawn)
2. CCCCCCCCCCCCCCCC(=O)OCC(O)CO (stereo not drawn)
3. CC/C=C\C/C=C\C/C=C\C/C=C\C/C=C\CCCC(=O)OCC(O)COC1OC(CO)C(O)C(O)C1O (stereo not drawn)
4. CC/C=C\C/C=C\C/C=C\C/C=C\C/C=C\CCCC(=O)OCC(COC1OC(CO)C(O)C(O)C1O)OC(=O)CCCCCCCCCCCCCCC (stereo not drawn)
5. CC/C=C\C/C=C\C/C=C\C/C=C\C/C=C\CCCC(=O)OCC(COC1OC(CO)C(O)C(O)C1O)OC(=O)CCC/C=C\C/C=C\C/C=C\C/C=C\C/C=C\CC (stereo not drawn)
6. CC/C=C\C/C=C\C/C=C\C/C=C\CCC(=O)OC(COC(=O)CCCCCCC/C=C\C/C=C\C/C=C\CC)COC1OC(CO)C(O)C(O)C1O (stereo not drawn)

1: 44; 2: 78; 3: 22; 4: 32; 5: 23; 6: 49
